# protocol: coupled detection enzyme interference, dose response, artefact control for MgcRacGAP inhibitor project, biochemical, coupled enzyme counter-screen (AID 624351);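 also: signal is the ADP detection kit reading of free GDP without any GAP enzyme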
# measurement parameters: ADP Hunter coupled enzyme counter-screen, fluorescence, no MgcRacGAP; series mostly up to 80 µM
Screen size: about 2,400 compounds; about 1,400 (58%) were called active.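 The calls were made as follows: active = inhibition of 30% or more at any tested dose; inconclusive = primary hits over the limit that were never retested; inactive = the rest.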 The set was probably picked from earlier hits. This is one part of the list.
Outcome (select one): active, inactive

Identify the outcome logged in this assay for the molecule shown: COC(=O)C1=C(C)N(Cc2ccco2)C(=O)C1
inactive

Per the records of this test, what outcome belongs to CCOc1cc(/C=N/NC(=O)c2ccccc2-n2cccc2)ccc1O ?
active

Record lookup: outcome of this test for COc1cc(C=NNC(=O)c2ccccc2-n2cccc2)ccc1O ?
active

----------
# protocol: coupled detection enzyme interference, dose response, artefact control for MgcRacGAP inhibitor project, biochemical, coupled enzyme counter-screen (AID 624351);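 also: signal is the ADP detection kit reading of free GDP without any GAP enzyme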
# measurement parameters: ADP Hunter coupled enzyme counter-screen, fluorescence, no MgcRacGAP; series mostly up to 80 µM
About 1,400 (58%) of roughly 2,400 compounds were called active.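 The calls were made as follows: active = inhibition of 30% or more at any tested dose; inconclusive = primary hits over the limit that were never retested; inactive = the rest.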 The set was probably picked from earlier hits. The list shows a part of the results.
Return exactly one item of active, inactive

Dear colleague, could you share the recorded outcome for c1cc2c(cc1NC1CCCCCC1)OCO2 when you have a moment?
active

What call does the record list for C#CCOCCOCCOCCNc1nc(N2CCN(C(=O)[C@H](CCCCN)n3cc([C@@H](N)C(C)CC)nn3)CC2)nc(N2CCN(C(=O)[C@H](CCCCN)n3cc([C@@H](N)CC(C)C)nn3)CC2)n1 (some centres undefined) ?
inactive

Dear colleague, could you share the recorded outcome for CC1CC(C)CN(C2CCN(Cc3cccnc3)CC2)C1 (centres undefined) when you have a moment?
inactive

Hey, what did the test say about O=C(CNC(=O)C1COc2ccccc2O1)N/N=C/c1ccc(O)cc1O (centres undefined) ?
active

----------
# protocol: coupled detection enzyme interference, dose response, artefact control for MgcRacGAP inhibitor project, biochemical, coupled enzyme counter-screen (AID 624351);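 also: signal is the ADP detection kit reading of free GDP without any GAP enzyme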
# measurement parameters: ADP Hunter coupled enzyme counter-screen, fluorescence, no MgcRacGAP; series mostly up to 80 µM
About 1,400 (58%) of roughly 2,400 compounds were called active.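 Rule for the calls: active = inhibition of 30% or more at any tested dose; inconclusive = primary hits over the limit that were never retested; inactive = the rest.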 The set was probably picked from earlier hits. The list shows a part of the results.
Result category, one only: active, inactive

What was the test verdict on Cc1nc2ccccc2nc1N/N=C/c1ccc(O)cc1 ?
active

What call does the record list for COc1cc(/C=N\NC(=O)c2c(C)nc3cc(C)ccn23)ccc1O ?
active

In this assay, the call recorded for COc1cc2oc(-c3ccc(O)cc3)cc(=O)c2c(OC)c1O was what?
active

// outcome(item) with item = CC(C)COc1ccc(N)cc1OCC(C)C
active

Which result was noted for this molecule in the test: CCN(CC)CCC(=O)N1C/C(=C/c2ccccc2)C(=O)/C(=C\c2ccccc2)C1
inactive

Record lookup: outcome of this test for CC(=O)N1CCN(c2ccc(Nc3ncnc4c3oc3ccccc34)cc2)CC1 ?
active

Kindly provide the recorded test outcome for the following molecule: O=C(CNCc1cccs1)Nc1ccc(N2CCCCCC2)cc1
inactive

# lookup: test call for CC(=O)N1CCN(c2ccc(NCc3cccs3)cc2)CC1
active

Dear colleague, could you share the recorded outcome for CCN(Cc1ccncc1)Cc1ccc(OC)c(OC)c1 when you have a moment?
inactive

GET /call?item= CCc1ccc(CNc2ccc(N3CCN(C(C)=O)CC3)cc2)cc1 returns the recorded outcome of this test.
active

Recorded test call requested for Oc1ccc(Nc2ncnc3ccccc23)cc1
active

Called result for Nc1sc(-c2ccccc2)c(Cc2ccccc2)c1C(=O)O
active

I'd appreciate the recorded outcome for Cc1cccc(Nc2c(-c3ccc(O)cc3)nc3ncccn23)c1 from this test.
active

----------
# protocol: coupled detection enzyme interference, dose response, artefact control for MgcRacGAP inhibitor project, biochemical, coupled enzyme counter-screen (AID 624351);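 also: signal is the ADP detection kit reading of free GDP without any GAP enzyme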
# measurement parameters: ADP Hunter coupled enzyme counter-screen, fluorescence, no MgcRacGAP; series mostly up to 80 µM
The whole screen tested about 2,400 compounds, of which about 1,400 (58%) were called active.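 How the source made its calls: active means inhibition of 30% or more at any tested dose; inconclusive means primary hits over the limit that were never retested; inactive means the rest.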 The set was probably picked from earlier hits. The list shows a part of the results.
Return exactly one item of 1 (yes) = active, 0 (no) = inactive

Hi team, can someone confirm the assay call for Nc1ccc(N(c2ccccc2)c2ccc(N)cc2)cc1 ?
1 (yes)

Please let me know the test result on file for Clc1cccc(-c2ccc(C=Nc3ccc(N4CCOCC4)cc3)o2)c1Cl .
1 (yes)

Which outcome did this test record for the compound S=c1[nH]nc(-c2ccncc2)n1/N=C/c1ccccc1 ?
1 (yes)

Field: outcome | Entry: COc1cc(/C=C2/C(=O)ON=C2c2ccccc2)ccc1O
0 (no)

Call for entry COc1cccc(C(=O)N2CCN(C3CCCCC3)CC2)c1 :
0 (no)

Tell me the recorded outcome of this test for CSCCOC(=O)C1=C(C)Nc2ccc(C)cc2S1 .
1 (yes)

Dear all, I need the recorded test outcome for COc1cc(/C=N/N=C2/NC(=O)C(c3ccccc3)S2)ccc1O (configuration not stated) , thank you.
1 (yes)

How did this test come out for CN(CC(=O)NCc1ccccc1)Cc1cccc(F)c1 ?
0 (no)

# fetch the recorded call for COc1ccc2c(c1)-c1nc(/N=C/c3ccccc3O)sc1CC2 here
1 (yes)

Given O=C(CC(c1ccccc1)c1ccccc1)Nc1ccc(O)cc1 , state the outcome it received in this test.
1 (yes)

Short answer needed: outcome of this test for COc1ccc(NC2CCCN(C(=O)c3cccc(N(C)C)c3)C2)cc1 (configuration not stated) ?
1 (yes)

# lookup: test call for Cc1ccc(N2C(S)=C(C#N)C(=O)NC23CCCCC3)cc1
0 (no)

Record request — test call for Cc1ccc(-c2n[nH]c(=S)n2/N=C/c2ccc(C(=O)O)cc2)cc1
1 (yes)

Can you look up the reported call for CN(C)C=NC1=NN(c2cccc(C(F)(F)F)c2)CC1 for me?
1 (yes)

Assay result, entry c1ccc(-c2ccccc2OCCN2CCOCC2)cc1 — outcome?
0 (no)

// return assay outcome for Cc1ccc(Cl)cc1-c1ccc(C=Nc2ccc(N3CCOCC3)cc2)o1
1 (yes)

So what was the verdict on COc1ccc(/C=N/N=C2/NC(=O)C(CC(=O)O)S2)cc1OCc1ccc(Cl)cc1Cl (configuration not stated) in this test?
0 (no)

GET /call?item= Cc1cc(NS(=O)(=O)c2ccc(Nc3nc(-c4ccc(O)cc4)cs3)cc2)no1 returns the recorded outcome of this test.
1 (yes)

Can you look up the reported call for Cn1c(-c2ccccc2)cnc1NCc1ccc(-c2ccccc2)cc1 for me?
0 (no)

What did this assay record as the result for CCc1nnc(N/N=C/c2c(C)[nH]c3ccccc23)n1N ?
1 (yes)

Entry COc1cc(/C=C/C(=O)OCC(=O)N(CC(C)C)c2c(N)n(Cc3ccccc3)c(=O)[nH]c2=O)ccc1O : call = ?
1 (yes)

Which outcome was assigned to COc1cc(/C=N/NC(=O)c2cn(-c3cccc(C)n3)cn2)ccc1O in this test?
1 (yes)

# lookup: test call for O=C(O)c1ccc2c(c1)[C@@H]1C=CC[C@@H]1[C@H](c1ccccn1)N2
0 (no)

Field: outcome | Entry: Oc1ccc(/C=N/NC2=NCCCCC2)c(O)c1
1 (yes)

Per the assay record, what outcome was assigned to CCN(CC)c1ccc(Nc2nc(Cl)ncc2Br)cc1 ?
1 (yes)

For Cc1cccc(N2C(S)=C(C#N)C(=O)NC2c2cccs2)c1 (configuration not stated) , what call appears in the results of this test?
0 (no)

Look up the recorded call for CCOC(=O)C1=C(C)Nc2ccc(C)cc2S1 in this test.
1 (yes)

Called result for O=C(CCCC(=O)c1ccccc1)Nc1ccc(O)cc1
1 (yes)

Returns: the outcome recorded for CCn1c(=O)n(CC)c2cc(N3CCCC3)c(NC(=O)c3cccc(Cl)c3)cc21 in this assay.
0 (no)

How did this test come out for O=C1NC(=S)NC1=Cc1ccc(O)cc1 ?
1 (yes)

Kindly provide the recorded test outcome for the following compound: C=CCc1ccc(OCCOCCNCCCC)c(OC)c1
0 (no)

In this assay, the call recorded for COc1ccc(NC(=O)Cn2nnc(C(=O)NCc3cccs3)c2N)cc1Cl was what?
0 (no)

Which result was noted for this compound in the test: Cc1cc(O)ccc1Nc1nc(-c2cccs2)cs1
1 (yes)

Recorded call for CCOC(=O)C1=C(C)Nc2ccccc2S1 ?
1 (yes)

Answer briefly: the call reported for Cc1[nH]c2ccccc2c1/C=N/Nc1nncn1N in this assay.
1 (yes)

So what was the verdict on O=C(c1cccc(F)c1)N1CCN(C2CCCCC2)CC1 in this test?
0 (no)

Which outcome did this test record for the compound CCCCCCCCCCCCCCCC[N+](C)(C)Cc1ccc(F)cc1 ?
0 (no)

----------
# protocol: coupled detection enzyme interference, dose response, artefact control for MgcRacGAP inhibitor project, biochemical, coupled enzyme counter-screen (AID 624351);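 also: signal is the ADP detection kit reading of free GDP without any GAP enzyme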
# measurement parameters: ADP Hunter coupled enzyme counter-screen, fluorescence, no MgcRacGAP; series mostly up to 80 µM
Screen size: about 2,400 compounds; about 1,400 (58%) were called active.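 The calls were made as follows: active = inhibition of 30% or more at any tested dose; inconclusive = primary hits over the limit that were never retested; inactive = the rest.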 The set was probably picked from earlier hits. The list shows a part of the results.
Valid outcomes are listed here; reply with one: 1 for active, 0 for inactive

Please let me know the test result on file for COc1cc(-c2ncc3ccccn23)cc(OC)c1OC .
0

Outcome? Cc1ccc(SCCN2CCN(Cc3ccccc3)CC2)cc1
0

Hello, I am checking results. What call was entered for CCCCNc1nc(=S)[nH]c2cc(OC)c(OC)cc12 ?
1

Can you look up the reported call for O=C1SC(c2ccccc2)=C/C1=C\N1CCCCC1 for me?
1

Test call, this molecule: CN1CCN(C(=O)c2sc(=S)n(-c3ccccc3)c2N)CC1
0

// param item: CN(C)c1ccc(N=Cc2nc(-c3ccccc3)oc2OC(=O)c2cccc(Cl)c2)cc1 ; yields the recorded call
0

Please let me know the test result on file for CCS(=O)(=O)NC(C)C(c1cccs1)N1CCN(c2ccc(OC)cc2)CC1 (configuration not stated) .
1

Which outcome was entered for the molecule COc1ccc(/C=C2\C(=O)NC(=O)c3ccccc32)cc1OC in this test?
0

Test call for this molecule, please: O=C(Nc1ccc(O)cc1)c1ccc2c(c1)C(=O)N(Cc1ccccc1)C2=O
0

Recorded call for O=C1CCCCCN1Sc1ccccc1 ?
0

Could you check what this test reported for COc1cc(/C=N/n2nnnc2N)ccc1O ?
1

Look up the recorded call for Cc1cc(/C=C(\C#N)C(=O)N2CCCCC2)cc(C)c1O in this test.
1

Could you check what this test reported for Cn1c(=O)[nH]c(=O)c2c1[nH]c(=S)n2Cc1ccc(Cl)cc1 ?
1

Entry CN1/C(=C\C=N\NC(=O)c2ccc(O)cc2)C(C)(C)c2ccccc21 : call = ?
1

Each molecule tested received a call. Report the one for COc1ccccc1NS(=O)(=O)c1cc(N)ccc1N1CCCC1 .
1

Returns: the outcome recorded for CC(=O)N1CCN(c2ccc(NCc3ccc(C(C)C)cc3)cc2)CC1 in this assay.
1

Look up the recorded call for CC(C)[C@H](N[C@@H](C)c1ccccc1)c1c(O)ccc2ccccc12 in this test.
1

# lookup: test call for CCOc1cc(/C=N\n2nnnc2N)ccc1O
1

Please indicate how the test categorized CCOC(=O)c1c(-c2ccccc2)csc1NC(=O)C(C)NCCCN1CCOCC1 (configuration not stated) .
0

Entry CCN(CC)CCOc1ccc2c(c1)C(=NNC(=O)c1ccccn1)c1cc(OCCN(CC)CC)ccc1-2 : call = ?
0

Field: outcome | Entry: CN(C)c1ccc(N=C/C=C2/N(C)c3ccccc3C2(C)C)cc1
1

How was COc1ccc2[nH]c3c(N4CCC(O)(c5cccc(C(F)(F)F)c5)CC4)ncnc3c2c1 classified in this test?
0

Check the results log: what was the call for CC(=O)c1c(C)c(C)c2n1CCn1c(C)ccc1-2 ?
1

How was CC(C1SC(=S)NC1=O)C1SC(=S)NC1=O (configuration not stated) classified in this test?
0

What did this assay record as the result for O=C(O)c1cccc(-n2sc3ccccc3c2=O)c1 ?
0

Hello, I am checking results. What call was entered for COc1ccc(N2CCN(C(c3cccs3)C(C)NC(=O)c3ccco3)CC2)cc1 (configuration not stated) ?
0

# lookup: test call for COc1cc(/C=N/n2cnnc2)ccc1OC(=O)c1cccnc1
0

Entry CC(=O)N1CCN(c2ccc(NCc3ccc(F)cc3)cc2)CC1 : call = ?
1

Recorded test call requested for COCCNC(=O)Cn1cc(/C=N/NC(=O)c2ccc(Oc3ccc(O)cc3)cc2)c2ccccc21
1

Test call for this molecule, please: COCCNC(=O)CN(C(=O)Cn1nnc2ccccc21)c1ccc(C)cc1
0

Dear colleague, could you share the recorded outcome for CN(C)C(=S)N=c1ssc(=S)n1Cc1ccccc1 when you have a moment?
0

Record request — test call for Cc1ccc2c(c1)C(C)CC(C)(C)N2C(=O)CN1CCN(C)CC1 (configuration not stated)
0

# fetch the recorded call for Nc1ccc(C(=O)N/N=C/c2ccc(N3CCOCC3)s2)cc1 here
1

Name the outcome recorded for Cn1c(=O)[nH]c(=O)c2c1[nH]c(=S)n2Cc1ccccc1 in the assay.
1

Hey, what did the test say about O=C(O)c1ccc(S(=O)(=O)c2ccc3c(c2)C(=O)N(NC(=O)c2cccnc2)C3=O)cc1 ?
0

Assay result, entry CCN(c1ccccc1)S(=O)(=O)c1ccc(N2CCN(c3ccc(O)cc3)CC2)nc1 — outcome?
1

Lab log entry: CCN(c1ccccc1)S(=O)(=O)c1ccc(Cl)c(NC(=O)CN(C)C2CCN(C)CC2)c1 — outcome as called in the assay?
0

Data credit: PubChem BioAssay AID624351
